The compounds listed here are annotated with their melting point.

{"structure-smiles": "CC(C)Cn1nnc2c3ncnc-3c3ccncc3n21", "melting point": "181 to 182 °C"}
{"structure-smiles": "CC(C)Nc1cc(-c2nc[nH]n2)nc(Cl)c1-c1c(F)cccc1Cl", "melting point": "152 °C"}
{"structure-smiles": "CCCCOc1nc(N)c2[nH]c(=O)n(CCSc3cccc(CC(=O)O)c3)c2n1", "melting point": "205 to 207 °C"}
{"structure-smiles": "CCOC(=O)CCCC(=O)c1ccc(-c2ccc(C)cc2)s1", "melting point": "120 to 121 °C"}
{"structure-smiles": "C=CCNC(=O)Cc1c[nH]c2ccc(CCS(=O)(=O)NC)cc12", "melting point": "123 to 125 °C"}

###

The entries below come with measured melting point values attached.
readout: melting point

{"compound": "CCCCOc1ccc2nc(C(=O)O)c(OCc3ccccc3)cc2c1", "experimental-value": "108 to 110 °C"}
{"compound": "N#Cc1cccc(NC(=O)CN2CCN(c3ncccc3C#N)CC2)c1", "experimental-value": "166 to 167 °C"}
{"compound": "CC(=O)Nc1ccc2c(-c3ccccc3)c([N+](=O)[O-])oc2c1", "experimental-value": "212 to 214 °C"}
{"compound": "CC(C)(C)NC(=O)c1cc(Br)c(Br)s1", "experimental-value": "190 °C"}
{"compound": "CNCC1(C)Cc2cc(NC)c3c(c2C(c2ccccc2)=N1)CC(C)(C)O3 (configuration not stated)", "experimental-value": "126 to 128 °C"}
{"compound": "O=C(Nc1ccccc1)c1cccc(Nc2cc(Cl)cc(Cl)c2)c1", "experimental-value": "164 to 165 °C"}
{"compound": "O=[N+]([O-])c1cc(F)ccc1OCCCCl", "experimental-value": "143 °C"}

###

melting point reference

{"compound": "COc1ccc(-c2ccc(N3C[C@H](CNC(C)=O)OC3=O)cc2F)ccc1=O", "melting point": "227 to 228 °C"}
{"compound": "OCCn1cnc2c(Cl)nc3ccccc3c21", "melting point": "185 to 187 °C"}
{"compound": "CCCCCCCN(CC)C(=O)CCC(=O)c1ccc(NS(C)(=O)=O)cc1", "melting point": "100 to 102 °C"}
{"compound": "CCSc1cc(C)nc(SCC)c1NC(=O)CCCCSc1nc2c(C)c(Cl)cc(C(C)C)c2o1", "melting point": "141 to 142 °C"}
{"compound": "COc1cc(CC(=O)O)cc2c1NC(C(F)(F)F)CC2 (stereo not given)", "melting point": "108 to 109 °C"}
{"compound": "CS(=O)CCN1C(=O)CN=C(c2ccccc2)c2cc(Cl)ccc21 (stereo not given)", "melting point": "166 to 167 °C"}
{"compound": "COc1ccc(C=CC(=O)N2CC(CCl)c3c2cc(N)c2ccccc32)cc1 (stereo not given)", "melting point": "114 to 116 °C"}
{"compound": "CC(C)N(C(=O)CC(C#N)(CCN1CCCCC1)c1ccccc1Cl)C(C)C (stereo not given)", "melting point": "83 to 85 °C"}
{"compound": "O=C1NC(N2CCCCCC2)=N/C1=C\\c1c[nH]c2ncc(F)cc12", "melting point": "299 °C"}
{"compound": "Cc1cc2ncnn2nc1OCC(CS(N)(=O)=O)C(C)C (stereo not given)", "melting point": "196 to 197 °C"}
